MDCK-MDR1: Papp B-A (10^−6, cm/s) values, listed per item
# Test system: MDR1-MDCK cell monolayers
# test.settings: dog, MDCK-MDR1, 120 min, 5 μM, pH 7.4
measurement.type: MDCK-MDR1: Papp B-A (10^−6, cm/s)

{"columns": ["molecule", "target.or.system", "endpoint.value"],
 "data": [
  ["COc1cc(-c2cc(O)c(-c3cnc(N(C)[C@@H]4C[C@@]5(C)CC[C@](C)(N5)[C@@H]4F)cn3)cc2F)cnn1 (single isomer, unassigned) [Compound 64E2]", "MDR1-MDCK cell monolayers", "44.1 10^−6, cm/s"],
  ["Cn1cc(-c2ccc(-c3cnc(N(C4CC4)[C@@H]4CC5CC[C@H](N5)[C@@H]4F)cn3)c(O)c2)cn1 (single isomer, unassigned) [Compound 49E2]", "MDR1-MDCK cell monolayers", "34.9 10^−6, cm/s"],
  ["CN(c1cnc(-c2cc(F)c(-c3cnn(C)c3)cc2O)cn1)[C@H]1C[C@@H]2CCC(N2)[C@H]1F (single isomer, unassigned) [Compound 17E2]", "MDR1-MDCK cell monolayers", "18 10^−6, cm/s"],
  ["CN(c1cnc(-c2cc(F)c(-c3ccn(C)c(=O)c3)cc2O)cn1)[C@@H]1C[C@@]2(C)CC[C@](C)(N2)[C@@H]1F [Compound 62E1]", "MDR1-MDCK cell monolayers", "41.5 10^−6, cm/s"]
]}

====

# Lookup of reported Papp A→B at 120 min, 5 μM keyed by entry
# Tested on: MDR1
# test.summary: in vitro
# test.settings: dog, MDCK-MDR1, pH 7.4, MDCK-MDR1: Papp A-B (10^−6, cm/s)

{"columns": ["molecule", "Papp A→B at 120 min, 5 μM (×10⁻⁶ cm/s)"],
 "data": [
  ["COc1cc(-c2ccc(-c3cnc(N(C)[C@@H]4CC5COC[C@H](N5)[C@@H]4F)cn3)c(O)c2)ccn1 (single isomer, unassigned)", 2.69],
  ["Cn1ccc(-c2ccc(-c3cnc(N(C4CC4)[C@@H]4CC5CC[C@H](N5)[C@@H]4F)cn3)c(O)c2)cc1=O (single isomer, unassigned)", 1.51],
  ["Oc1cc(-c2cn[nH]c2)ccc1-c1cnc(O[C@@H]2C[C@H]3CCC(N3)[C@@H]2F)cn1 (single isomer, unassigned)", 7.49],
  ["CN(c1cnc(-c2ccc(-c3cnn(C)c3)cc2O)cn1)[C@H]1C[C@@H]2CCC(N2)[C@H]1F (single isomer, unassigned)", 7.68],
  ["COc1cc(-c2cc(O)c(-c3cnc(N(C)[C@H]4C[C@@H]5CCC(N5)[C@H]4F)cn3)cc2F)ncn1 (single isomer, unassigned)", 3.76],
  ["COc1cc(-c2ccc(-c3cnc(N(C4CC4)[C@@H]4CC5CC[C@H](N5)[C@@H]4F)cn3)c(O)c2)cc(F)n1 (single isomer, unassigned)", 0.92],
  ["CN(c1cnc(-c2ccc(-c3cnn(C)c3)cc2O)cn1)[C@@H]1CC2N[C@H](C1)CC2(F)F (single isomer, unassigned)", 28.7],
  ["COc1cc(-c2ccc(-c3cnc(N(C)[C@H]4C[C@@H]5CCC(N5)[C@H]4F)cn3)c(O)c2)ccn1 (single isomer, unassigned)", 0.98],
  ["Cn1ccc(-c2cc(O)c(-c3cnc(N(C4CC4)[C@H]4C[C@@H]5CCC(N5)[C@H]4F)cn3)cc2F)cc1=O (single isomer, unassigned)", 1.75],
  ["CN(c1cnc(-c2ccc(C3=CC(=O)NC3)cc2O)cn1)[C@H]1C[C@@H]2CCC(N2)[C@H]1F (single isomer, unassigned)", 0.56],
  ["CN(c1cnc(-c2cc(F)c(-c3ccn(C)c(=O)c3)cc2O)cn1)[C@H]1C[C@@H]2CCCC(N2)[C@H]1F (single isomer, unassigned)", 2.14],
  ["Oc1cc(-n2ccnn2)c(F)cc1-c1cnc(N(C2CC2)[C@@H]2CC3CC[C@H](N3)[C@@H]2F)cn1 (single isomer, unassigned)", 5.25],
  ["CN(c1cnc(-c2cc(F)c(-c3cn[nH]c3)cc2O)cn1)[C@@H]1CC2CC[C@H](N2)[C@@H]1F (single isomer, unassigned)", 6.63],
  ["CN(c1cnc(-c2ccc(-c3cnn(CF)c3)cc2O)cn1)[C@@H]1CC2CC[C@H](N2)[C@@H]1F (single isomer, unassigned)", 5.38],
  ["CN(c1cnc(-c2ccc(-c3nnco3)cc2O)cn1)[C@H]1C[C@@H]2CCC(N2)[C@H]1F (single isomer, unassigned)", 8.23],
  ["CN(c1cnc(-c2ccc(-c3cn[nH]c3)cc2O)cn1)[C@@H]1C[C@H]2CCC(N2)[C@@H]1F (single isomer, unassigned)", 3.58],
  ["CNC(=O)/C=C/c1cc(O)c(-c2cnc(N(C)[C@@H]3CC4CC[C@H](N4)[C@@H]3F)cn2)cc1F (single isomer, unassigned)", 1.71],
  ["CNC(=O)/C=C/c1cc(O)c(-c2cnc(N(C)[C@H]3C[C@@H]4CCC(N4)[C@H]3F)cn2)cc1F (single isomer, unassigned)", 2.48],
  ["COc1cc(-c2ccc(-c3cnc(N(C)[C@H]4C[C@]5(C)CC[C@@](C)(N5)[C@H]4F)cn3)c(O)c2)cnn1", 5.01],
  ["CN(c1cnc(-c2ccc(-c3cnn(C)c3)cc2O)cn1)[C@@H]1CC2CC(F)(F)[C@@H](C1)N2 (single isomer, unassigned)", 22.9],
  ["CN(c1cnc(-c2ccc(-c3ccn(C)c(=O)c3)cc2O)cn1)[C@H]1C[C@@H]2CCCC(N2)[C@H]1F (single isomer, unassigned)", 1.28],
  ["CNC(=O)/C=C/c1cc(O)c(-c2cnc(N(C3CC3)[C@H]3C[C@]4(C)CC[C@@](C)(N4)[C@H]3F)cn2)cc1F (single isomer, unassigned)", 2.05]
]}
